Test system: thrombus formation in the carotid artery (70% FeCl3 patch)
assayComment: Anti-thrombotic activity, FeCl3-induced carotid artery thrombosis
Assay type: in vivo, Male Wistar rats
conditionDetails: Rattus norvegicus, po, 1 h, 90 μmol/kg p.o., 1 h after dosage, % animals protected, read-out: Antithrombotic activity (% protection)
measurementKind: responders at 90 µmol/kg
Just so you know, I need the unit written after the number.

State the recorded responders at 90 µmol/kg for this entry: C[S@+]([O-])[C@H]1CO[C@H]2[C@@H]1OC[C@H]2O[N+](=O)[O-] [Comp 7, reference compound]
0%

Now give it for CCCS[C@@H]1CO[C@H]2[C@@H]1OC[C@H]2O[N+](=O)[O-] too.
32%

Now give it for CCS(=O)(=O)[C@@H]1CO[C@H]2[C@@H]1OC[C@H]2O[N+](=O)[O-] too.
9%

Now give it for O=[N+]([O-])O[C@@H]1CO[C@H]2[C@@H]1OC[C@@H]2SCc1ccccc1 [Comp 2, reference compound] too.
33%

Now give it for CCS[C@@H]1CO[C@H]2[C@@H]1OC[C@H]2O[N+](=O)[O-] too.
66%

Now give it for CCS(=O)(=O)[C@H]1CO[C@H]2[C@@H]1OC[C@H]2O[N+](=O)[O-] too.
84%
